Target: CDK12(aa686-1082)/cyclin K complex (Homo sapiens (Human))
Sequence (Q9NYV4 686-1082, species assumed): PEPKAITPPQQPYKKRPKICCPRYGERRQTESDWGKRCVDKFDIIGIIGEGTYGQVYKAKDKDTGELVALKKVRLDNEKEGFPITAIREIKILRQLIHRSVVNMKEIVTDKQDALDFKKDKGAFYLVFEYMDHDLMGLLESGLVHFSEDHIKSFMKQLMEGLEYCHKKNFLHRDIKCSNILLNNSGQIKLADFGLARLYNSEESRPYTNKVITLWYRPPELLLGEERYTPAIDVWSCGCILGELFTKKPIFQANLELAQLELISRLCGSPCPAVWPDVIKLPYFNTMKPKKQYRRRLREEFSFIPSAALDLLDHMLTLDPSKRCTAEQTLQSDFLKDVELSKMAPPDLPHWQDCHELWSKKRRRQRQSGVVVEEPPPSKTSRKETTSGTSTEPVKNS
Sequence (O75909 whole entry partner, species assumed, the tested form may be a part): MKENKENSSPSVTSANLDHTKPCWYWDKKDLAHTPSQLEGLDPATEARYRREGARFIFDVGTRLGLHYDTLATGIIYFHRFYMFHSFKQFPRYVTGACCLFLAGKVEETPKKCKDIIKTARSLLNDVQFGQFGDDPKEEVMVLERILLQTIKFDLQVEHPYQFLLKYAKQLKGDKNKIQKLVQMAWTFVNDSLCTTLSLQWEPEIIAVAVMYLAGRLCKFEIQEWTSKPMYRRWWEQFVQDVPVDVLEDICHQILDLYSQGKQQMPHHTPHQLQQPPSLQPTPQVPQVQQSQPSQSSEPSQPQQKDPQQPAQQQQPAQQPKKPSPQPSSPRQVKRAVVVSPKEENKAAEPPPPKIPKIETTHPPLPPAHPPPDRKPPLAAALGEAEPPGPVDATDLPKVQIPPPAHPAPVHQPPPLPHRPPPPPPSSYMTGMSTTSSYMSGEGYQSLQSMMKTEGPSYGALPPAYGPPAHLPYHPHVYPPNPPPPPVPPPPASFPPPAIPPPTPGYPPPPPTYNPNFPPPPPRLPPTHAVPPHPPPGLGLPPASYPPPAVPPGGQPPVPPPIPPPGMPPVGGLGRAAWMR
Assay: In vitro enzymatic inhibitory activity test, CDK12
Settings: Caliper mobility shift, 180 min at 27° C.
Counter-ions that a name gives are not always drawn.
quantity: IC50 (nM)

Sample records with IC50:
compound	IC50, nM
FC(F)(F)c1cnc(N[C@H]2CCCNC2)nc1-c1c[nH]c2nc(N3CCC4(CC3)COC4)ccc12	1120
FC(F)(F)c1cnc(N[C@H]2CCCNC2)nc1-c1c[nH]c2nc(C3CCOC3)ccc12 (single isomer, unassigned) [Compound 108]	512
C[C@H]1CC[C@H](Nc2ncc(C(F)(F)F)c(-c3c[nH]c4nc(N5CCOC[C@@H]5C)ccc34)n2)CN1	49100
FC(F)(F)c1cnc(N[C@H]2CCCNC2)nc1-c1c[nH]c2nc(N3C4COCC3C4)ccc12	1390
FC(F)(F)c1cnc(N[C@H]2CCCNC2)nc1-c1c[nH]c2nc(N3CCOC[C@@H]3C(F)(F)F)ccc12	2010
FC(F)(F)c1cnc(N[C@H]2CCCNC2)nc1-c1c[nH]c2nc(C3CCOC3)ccc12 (single isomer, unassigned) [Compound 107]	567
CC[C@H]1COCCN1c1ccc2c(-c3nc(N[C@H]4CCCNC4)ncc3C(F)(F)F)c[nH]c2n1	773
OCC1CCN(c2ccc3c(-c4nc(N[C@H]5CCCNC5)ncc4C(F)(F)F)c[nH]c3n2)CC1	733

A. O=S1(=O)CCN(c2ccc3c(-c4nc(N[C@H]5CCCNC5)ncc4C(F)(F)F)c[nH]c3n2)CC1
B. FC(F)(F)c1cnc(N[C@H]2CCCNC2)nc1-c1c[nH]c2nc(N3CC4(CCCOC4)C3)ccc12
C. FC(F)(F)c1cnc(N[C@H]2CCCNC2)nc1-c1c[nH]c2nc(N3CC4(COC4)C3)ccc12
Request: Reorder the items by IC50, least to greatest. Sort the labels as requested; that list is your answer.
Response: A, C, B
(A: 277 nM, C: 555 nM, B: 1630 nM)

1. FC(F)(F)c1cnc(N[C@H]2CCCNC2)nc1-c1c[nH]c2nc(N3CC4COCC4C3)ccc12 (some centres unmarked)
2. FC(F)(F)c1cnc(N[C@H]2CCCNC2)nc1-c1c[nH]c2nc(N3CCCC4(CCOC4)C3)ccc12 (some centres unmarked)
Request: Select the item whose IC50 value is smaller, choosing between 1 and 2 . Identify your selection by its label.
Response: 1
(1: 1020 nM, 2: 2060 nM)

A. FC(F)(F)c1cnc(N[C@H]2CCCNC2)nc1-c1c[nH]c2nc(C3CCOC3)ccc12 (some centres unmarked) [Compound 29]
B. FC(F)(F)c1cnc(N[C@H]2CCCNC2)nc1-c1c[nH]c2nc(C34CCOCC3C4)ccc12 (some centres unmarked) [Compound 31, formate]
Request: Select the item whose IC50 value is smaller, choosing between A and B . Identify your selection by its label.
Response: B
(B: 517 nM, A: 855 nM)

* * *

Biological target: CDK9/CyclinT1 (Homo sapiens (Human), UniProt P50750)
Sequence (P50750 whole entry, species assumed): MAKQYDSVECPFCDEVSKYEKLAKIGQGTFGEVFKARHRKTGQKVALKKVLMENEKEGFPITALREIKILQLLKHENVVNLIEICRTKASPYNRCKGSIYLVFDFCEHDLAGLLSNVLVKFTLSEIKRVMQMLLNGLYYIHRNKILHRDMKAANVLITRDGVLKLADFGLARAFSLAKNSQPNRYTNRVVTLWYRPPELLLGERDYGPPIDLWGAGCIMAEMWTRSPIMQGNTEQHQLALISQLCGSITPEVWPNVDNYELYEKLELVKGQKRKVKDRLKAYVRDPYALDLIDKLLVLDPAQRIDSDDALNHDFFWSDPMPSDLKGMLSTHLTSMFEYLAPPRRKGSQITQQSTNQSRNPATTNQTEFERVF
Sequence (O60563 whole entry partner, species assumed): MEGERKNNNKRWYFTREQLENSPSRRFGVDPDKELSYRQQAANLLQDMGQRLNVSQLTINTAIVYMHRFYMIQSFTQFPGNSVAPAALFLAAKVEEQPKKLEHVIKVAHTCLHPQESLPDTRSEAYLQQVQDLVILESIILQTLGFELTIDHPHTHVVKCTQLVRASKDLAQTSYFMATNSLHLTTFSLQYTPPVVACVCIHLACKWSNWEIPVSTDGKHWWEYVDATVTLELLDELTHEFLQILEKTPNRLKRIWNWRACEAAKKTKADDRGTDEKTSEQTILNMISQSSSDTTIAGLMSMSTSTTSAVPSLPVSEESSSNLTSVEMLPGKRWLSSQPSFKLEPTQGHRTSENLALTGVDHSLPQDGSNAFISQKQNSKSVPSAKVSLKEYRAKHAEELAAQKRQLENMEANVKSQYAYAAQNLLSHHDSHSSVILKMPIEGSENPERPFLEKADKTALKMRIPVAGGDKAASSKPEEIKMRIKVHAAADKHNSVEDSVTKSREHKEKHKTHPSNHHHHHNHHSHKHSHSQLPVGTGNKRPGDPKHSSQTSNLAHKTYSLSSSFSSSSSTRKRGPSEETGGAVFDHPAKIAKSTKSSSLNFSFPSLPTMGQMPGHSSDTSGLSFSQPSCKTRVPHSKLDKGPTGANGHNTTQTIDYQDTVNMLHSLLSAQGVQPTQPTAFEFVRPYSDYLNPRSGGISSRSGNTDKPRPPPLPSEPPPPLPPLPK
Assay: In vitro enzymatic inhibitory activity test, CDK9
Details: Caliper mobility shift, 180 min at 27° C.
Counter-ions that a name gives are not always drawn.
quantity: IC50 (nM)

compound	quantity	value.unit	result.number
C[C@H]1CNC[C@@H](Nc2ncc(C(F)(F)F)c(-c3c[nH]c4nc(N5CCOC[C@@H]5C)ccc34)n2)C1	IC50	nM	1820

P. OCC1CCN(c2ccc3c(-c4nc(N[C@H]5CCCNC5)ncc4C(F)(F)F)c[nH]c3n2)CC1
Q. C[C@H]1COCCN1c1ccc2c(-c3nc(N[C@@H]4CNC[C@@H](F)C4)ncc3C(F)(F)F)c[nH]c2n1
R. FC(F)(F)c1cnc(N[C@H]2CCCNC2)nc1-c1c[nH]c2nc(C3CCCCO3)ccc12 (some centres unmarked) [Compound 30, formate]
Request: Reorder the items by IC50, least to greatest. Sort the labels as requested; that list is your answer.
Response: P, Q, R
(P: 682 nM, Q: 3350 nM, R: 9530 nM)

P. FC(F)(F)c1cnc(N[C@H]2CCCNC2)nc1-c1c[nH]c2cc(N3CCCC3)ccc12 [Compound 101, reference compound]
Q. FC(F)(F)c1cnc(N[C@H]2CCCNC2)nc1-c1c[nH]c2nc(N3CC4COCC4C3)ccc12 (some centres unmarked)
Request: Select the item whose IC50 value is smaller, choosing between P and Q . Identify your selection by its label.
Response: Q
(Q: 907 nM, P: 4610 nM)

1. FC(F)(F)c1cnc(N[C@H]2CCCNC2)nc1-c1c[nH]c2nc(N3CCCC4(CCOC4)C3)ccc12 (some centres unmarked)
2. OC1CCN(c2ccc3c(-c4nc(N[C@H]5CCCNC5)ncc4C(F)(F)F)c[nH]c3n2)CC1
3. FC(F)(F)c1cnc(N[C@H]2CCCNC2)nc1-c1c[nH]c2nc(C34CCOCC3C4)ccc12 (some centres unmarked) [Compound 31, formate]
Request: Reorder the items by IC50, least to greatest. Sort the labels as requested; that list is your answer.
Response: 2, 3, 1

* * *

Target: CDK9/CyclinT1 (Homo sapiens (Human), UniProt P50750)
Assay: In vitro enzymatic inhibitory activity test, CDK9
Conditions: Caliper mobility shift, 180 min at 27° C.
Protocol: CDK7/CyclinH was diluted in a test buffer solution (20 mM MES PH6.75, 0.01% Tween20, 50 ug/mL BSA, 6 mM MgCl2) to obtain a corresponding enzyme solution with a 2.4× concentration. […] Electrophoretic separation was performed on Caliper EZ Reader II by means of a fluorogenic substrate and a phosphorylated product to analyze the reaction mixture. Data were calculated by using GraphPad Prism version 6.0. […]
pIC50: −log10 of the molar value.
quantity: pIC50

Sample records with pIC50:
compound	tested.target	pIC50
FC(F)(F)c1cnc(N[C@H]2CCCNC2)nc1-c1c[nH]c2nc(N3CC4(CCOC4)C3)ccc12 [Compound 11]	CDK9/CyclinT1 (Homo sapiens (Human), UniProt P50750)	5.37
FC(F)(F)c1cnc(N[C@H]2CCCNC2)nc1-c1c[nH]c2nc(N3C[C@H]4C[C@@H]3CO4)ccc12 [Compound 2]	CDK9/CyclinT1 (Homo sapiens (Human), UniProt P50750)	5.99
CC1(O)CCN(c2ccc3c(-c4nc(N[C@H]5CCCNC5)ncc4C(F)(F)F)c[nH]c3n2)CC1 [Compound 23]	CDK9/CyclinT1 (Homo sapiens (Human), UniProt P50750)	5.58

P. FC(F)(F)c1cnc(N[C@H]2CCCNC2)nc1-c1c[nH]c2nc(C3=CCOCC3)ccc12 [Compound 27]
Q. FC(F)(F)c1cnc(N[C@H]2CCCNC2)nc1-c1c[nH]c2nc(N3CCCOCC3)ccc12 [Compound 22]
R. C[C@@H]1CNC[C@@H](Nc2ncc(C(F)(F)F)c(-c3c[nH]c4nc(N5CCOC[C@@H]5C)ccc34)n2)C1 [Compound 115]
S. C[C@H]1COCCN1c1nc2[nH]cc(-c3nc(N[C@H]4CCCNC4)ncc3C(F)(F)F)c2cc1F [Compound 75]
T. FC(F)(F)c1cnc(N[C@H]2CCCNC2)nc1-c1c[nH]c2nc(N3CCC4(COC4)C3)ccc12 [Compound 8]
Request: Order the 5 compounds from highest to lowest pIC50. Sort the labels as requested; that list is your answer.
Response: P, Q, S, T, R
(P: 5.82, Q: 5.54, S: 5.23, T: 4.80, R: 4.56)

I. CC1(O)CCN(c2ccc3c(-c4nc(N[C@H]5CCCNC5)ncc4C(F)(F)F)c[nH]c3n2)C1 (stereo partly drawn) [Compound 6]
II. FC(F)(F)c1cnc(N[C@H]2CCCNC2)nc1-c1c[nH]c2nc(N3CC4(COC4)C3)ccc12 [Compound 14]
Request: Select the item whose pIC50 value is smaller, choosing between I and II . Identify your selection by its label.
Response: II
(II: 5.78, I: 5.99)

* * *

Target: CDK12(aa686-1082)/cyclin K complex (Homo sapiens (Human))
Assay: In vitro enzymatic inhibitory activity test, CDK12
Details: Caliper mobility shift, 180 min at 27° C.
quantity: IC50 (nM)

Sample records with IC50:
compound	value.unit	IC50
FC(F)(F)c1cnc(N[C@H]2CCCNC2)nc1-c1c[nH]c2nc(N3CCCOCC3)ccc12	nM	783
FC(F)(F)c1cnc(N[C@H]2CCCNC2)nc1-c1c[nH]c2nc(N3CCOCC3)ccc12	nM	1460
N#CC1CCN(c2ccc3c(-c4nc(N[C@H]5CCCNC5)ncc4C(F)(F)F)c[nH]c3n2)CC1	nM	765
CC1(O)CCN(c2ccc3c(-c4nc(N[C@H]5CCCNC5)ncc4C(F)(F)F)c[nH]c3n2)C1 (stereo partly drawn)	nM	1840
FC(F)(F)c1cnc(N[C@H]2CCCNC2)nc1-c1c[nH]c2nc(N3CCC4(COC4)C3)ccc12	nM	9320

P. CP(C)(=O)c1ccc2c(-c3nc(N[C@H]4CCCNC4)ncc3C(F)(F)F)c[nH]c2n1
Q. C[C@H]1COCCN1c1ccc2c(-c3nc(N[C@H]4CCCNC4)ncc3C(F)(F)F)c[nH]c2n1
Request: Select the item whose IC50 value is smaller, choosing between P and Q . Identify your selection by its label.
Response: P
